Measured z-score by item
target: NADPH oxidase 2 (Homo sapiens); test: NOX2-dependent H2O2 signal modulators, primary screen, NOX inhibitor project, cell-based, HEK293-NOX2, PMA-stimulated, Amplex Red fluorescence (AID 1159); conditions: 45 min, higher = more signal, called active from +8 up or from −8 down; also: test concentration not given here
Keep it simple and answer with nothing but the number.

• O=C1C2=CC[C@H]3C(=O)N(Cc4ccc5c(c4)OCO5)C(=O)[C@H]3[C@H]2[C@H](O)[C@@H]2O[C@H]12 = -0.382
• COc1ccc([Si](C)(C)[C@H]2[C@H](CCO)O[C@@]3(C(=O)N(Cc4cccc(NC(=O)[C@H](C)O)c4)c4ccccc43)[C@@H]2C)cc1 = -4.7
• CCOC(=O)C1=CCC(c2cc3ccccc3[nH]2)NC1 (stereo not given) = -0.246
• CC(C)[C@@H](OCc1ccccc1)[C@H](C)C=NO[C@H](C)c1cn([C@H](CO)Cc2ccccc2)nn1 = -2.23
• COCCCNC(=O)[C@]1(CCC(=O)OC(C)(C)C)N=C(c2ccc(OCCCO)cc2)O[C@@H]1c1ccccc1N=[N+]=[N-] = -2.44

Ask: Consider the molecule shown here: CCOC(=O)[C@H](Cc1ccccc1)NC(=O)CCC1CC(OC(=O)NCc2ccc3c(c2)OCO3)CC2(CCCC(COC(=O)NCC3CCCCC3)O2)O1 (stereo not given in full) What is its recorded z-score?
Reply: 1.51

Ask: Consider the molecule shown here: "COc1ccccc1CN1C(=O)c2ccccc2[C@@H](C(=O)NCC(F)(F)F)[C@@H]1c1ccc(CO)cc1" What is its recorded z-score?
Reply: 0.629
